tested on: Z-138; assay: Antiproliferative activity against human Z138 cells incubated for 10 days by cell titer-glo assay; format: functional, cell-based; conditions: Z-138, 240 h
Measured pEC50 of individual entries
pEC50 here: minus log base 10 of the concentration, concentration in moles per litre.

Recorded results for 3 molecules are shown here.
Cc1cn([C@@H]2C[C@@H]3[C@H](Cc4ccc5cc(F)c(N)nc5c4)CC[C@]3(O)[C@H]2O)c2ncnc(N)c12 | 8.43
Cc1ncnc2c1ccn2[C@@H]1O[C@@H]2[C@H](Cc3ccc4cc(F)c(N)nc4c3)CC[C@]2(O)[C@H]1O | 7.64
Nc1nc2cc(C[C@@H]3CC[C@@]4(O)[C@@H]3C[C@@H](n3cc(F)c5c(N)ncnc53)[C@@H]4O)cc(F)c2cc1F | 8.24

Query :: Assign pEC50 to the following record: Nc1nc2cc(O[C@H]3CC[C@@]4(O)[C@@H]3O[C@@H](n3ccc5cncnc53)[C@@H]4O)ccc2cc1Br
Result :: 7.70

Query :: Return pEC50 for the following molecule: Cc1ncnc2c1ccn2[C@@H]1O[C@@H]2[C@@H](Oc3ccc4cc(F)c(N)nc4c3)CC[C@]2(O)[C@H]1O
Result :: 6.76

====

test: MRT in rat; assay type: ADME; conditions: in vivo
In this section we review reported MRT values for a set of compounds.
Note: unit h is implicit; provide only the numeric part.

Cc1ncnc2c1ccn2[C@@H]1C[C@@H]2[C@H](Cc3ccc4cc(Br)c(N)nc4c3)CC[C@]2(O)[C@H]1O | 1.5
Cc1ncnc2c1ccn2[C@@H]1O[C@@H]2[C@@H](Oc3ccc4cc(F)c(N)nc4c3)CC[C@]2(O)[C@H]1O | 1.5
CNc1ncnc2c1ccn2[C@@H]1O[C@@H]2[C@H](Cc3ccc4cc(Br)c(N)nc4c3)CC[C@]2(O)[C@H]1O | 1

Query :: For Cc1ncnc2c1ccn2[C@@H]1O[C@@H]2[C@H](Cc3ccc4ccc(N)nc4c3)CC[C@]2(O)[C@H]1O , write its MRT.
Result :: 1.7

Query :: Query MRT for Cc1ncnc2c1ccn2[C@@H]1O[C@@H]2[C@H](Cc3ccc4cc(Br)c(N)nc4c3)CC[C@]2(O)[C@H]1O
Result :: 1.1

Query :: Please report MRT for the following compound: Nc1nc2cc(C[C@@H]3CC[C@@]4(O)[C@@H]3C[C@@H](n3cc(F)c5c(N)ncnc53)[C@@H]4O)ccc2cc1F
Result :: 1.3

====

assay: MRT in rat; assay type: ADME; details: in vivo
MEASURED_METRIC: MRT (h)
Give just the numeric value; h need not be written.

Nc1nc2cc(C[C@@H]3CC[C@@]4(O)[C@@H]3O[C@@H](n3cc(F)c5c(N)ncnc53)[C@@H]4O)ccc2cc1F | 1
Cc1ncnc2c1ccn2[C@@H]1O[C@@H]2[C@H](Cc3ccc4cc(Cl)c(N)nc4c3)CC[C@]2(O)[C@H]1O | 1.1
Cc1ncnc2c1ccn2[C@@H]1C[C@@H]2[C@H](Cc3ccc4cc(Cl)c(N)nc4c3)CC[C@]2(O)[C@H]1O | 1.7
Nc1nc2cc(C[C@@H]3CC[C@@]4(O)[C@@H]3O[C@@H](n3ccc5c(N)ncnc53)[C@@H]4O)ccc2cc1Br | 1.5
Nc1nc2cc(C[C@@H]3CC[C@@]4(O)[C@@H]3O[C@@H](n3ccc5c(N)ncnc53)[C@@H]4O)ccc2cc1Cl | 1.3

Query :: Tell me measured MRT for Nc1nc2cc(C[C@@H]3CC[C@@]4(O)[C@@H]3O[C@@H](n3ccc5c(N)ncnc53)[C@@H]4O)c(F)cc2cc1F please.
Result :: 1.6

Query :: Give MRT for the following compound: Cc1ncnc2c1ccn2[C@@H]1O[C@@H]2[C@H](Cc3ccc4cc(F)c(N)nc4c3)CC[C@]2(O)[C@H]1O
Result :: 1

Query :: Give reported MRT value for CNc1ncnc2c1ccn2[C@@H]1O[C@@H]2[C@@H](Oc3ccc4cc(Br)c(N)nc4c3)CC[C@]2(O)[C@H]1O
Result :: 1.2

Query :: Retrieve MRT measured for Cc1nc(N)c2ccn([C@@H]3O[C@@H]4[C@H](Cc5ccc6cc(Br)c(N)nc6c5)CC[C@]4(O)[C@H]3O)c2n1 and print it.
Result :: 1.5

Query :: Give a short answer stating reported MRT for Cc1ncnc2c1ccn2[C@@H]1O[C@@H]2[C@@H](Oc3ccc4cc(Cl)c(N)nc4c3)CC[C@]2(O)[C@H]1O .
Result :: 1.4

Query :: Item Nc1nc2cc(C[C@@H]3CC[C@@]4(O)[C@@H]3O[C@@H](n3ccc5c(N)ncnc53)[C@@H]4O)ccc2cc1F : provide MRT
Result :: 1.3

Source: ChEMBL document CHEMBL4808168
